Reported GI50 values for a set of molecules
test system: OVCAR-8; assay: NCI tumour cell line growth inhibition, 48 h
The source made the active and inactive calls. Cut-off read from the data, not from the text of the source: active = GI50 up to about 1.1 µM and inactive = higher.

// below: answered molecules
Molecule | Experimental Value
Nc1nc(O)nc2c1ncn2C1OC(CO)C(O)C1O (stereo not drawn) | 23.8 µM (inactive)
Cc1cc(-c2c(Br)cc(C(=O)O)n2C)on1 | > 100 µM (inactive)
N#CC(C#N)=c1[nH]c2cccc3c2-c2c(cccc2c3=C(C#N)C#N)[nH]1 | > 100 µM (inactive)

### Prompt Which GI50 is reported for this molecule? [N-]=[N+]=Nc1c(Br)c(=O)[nH]c(=O)n1COCCO
### Response > 100 µM (inactive)
